PBM binding z-score values by entry
System: PPARg:RXRa (NR concentration 180 nM, RXRa partner concentration 90 nM)
method description: PBM binding z-score (relative to random genomic background probes); higher = stronger binding; sequences stand for … in GC…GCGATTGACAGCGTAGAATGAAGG
Just the number.

Some solved entries appear below for comparison.
[
  {
    "sequence code": "TGTATTAGTTGAAGGGCAACCGACGAGTCCGTTT",
    "PBM binding z-score": 0.102
  },
  {
    "sequence code": "TAGCCTAGGTCAGATCGGGCCGGTATACGCTATA",
    "PBM binding z-score": 0.615
  },
  {
    "sequence code": "TCGAGTAGGTTAGGGGCATTCCGAATGGCGTCGA",
    "PBM binding z-score": 0.541
  },
  {
    "sequence code": "GCGACTGGGCCAAAGCAGGTTACCATAAGGTTGG",
    "PBM binding z-score": 0.648
  },
  {
    "sequence code": "TAGCCTAGGTCAGATCGGGCCAGTATCCGCTATA",
    "PBM binding z-score": 0.405
  },
  {
    "sequence code": "CCTAGCAGGCCACTCTGGGTCACTCAAGGCTTGA",
    "PBM binding z-score": 0.363
  },
  {
    "sequence code": "AGTCAAAGTTCATCTAGGTAACGTACGATATGCT",
    "PBM binding z-score": 6.7
  },
  {
    "sequence code": "CGTCCAAGGTCAAGGTCAGCGAAAGAGACTCGAA",
    "PBM binding z-score": 6.76
  },
  {
    "sequence code": "TCATATAGATAAATGCTAGGTGAAAGTCCGATCT",
    "PBM binding z-score": 0.876
  },
  {
    "sequence code": "ACTATTAGTTGAGACGAGGGCAGCCGATAGGTTG",
    "PBM binding z-score": 0.689
  }
]

Just so you know, measured PBM binding z-score for "CAAACTAGGACAAGGTCAAAGTCGGTTTGTGCCA" came out at 5.5

"TCGAGTAGGTTACCAAAGGGGCATTCAGCTTTCT" yielded PBM binding z-score of 0.576

PBM binding z-score for "AGAATGAGGTTATTAAGATCTGGGAATTGCGGTC" is 0.924

// field: PBM binding z-score; key: "TAGCCTAGGCCAGATCGGGCCAGTATACGCTATA" ; value = 0.0311

Short answer for "CCTGCTACGTCATGGTCAGCTAATCTACAGTATG" : PBM binding z-score was 0.216

"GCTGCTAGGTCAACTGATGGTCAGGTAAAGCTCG" has a reported PBM binding z-score of 2.95

# PBM binding z-score of "GCAGACACGTGAAACGCAGGTAACTCAGGGTGGC" = 0.584

Short answer for "CTACCAAGGTGAACAAGGACGTTGATTACTATTC" : PBM binding z-score was 0.812

Recorded result, "TCTTATAGATCAGCAGGTTAAGAAAGCTGGCCAA" , PBM binding z-score: -0.154

The measured PBM binding z-score associated with "TAGCCTAGGTCAGATCGGGCCACTATACGCTATA" reads 0.925

So, "TAGCCTAGGTCATGAGGGCCAGTATAGTGTCGGC" ? Its PBM binding z-score was 2.94
